system: Hs-578T; assay: NCI tumour cell line growth inhibition, 48 h
The source made the active and inactive calls. Cut-off read from the data, not from the text of the source: active = GI50 up to about 1.1 µM and inactive = higher.
Outcomes you can answer with include only these: Yes (active), No (inactive)

For orientation, consider the following solved cases.
Cc1cn(CCOCCOC(=O)NC(CCCNC(=N)N)C(=O)O)c(=O)[nH]c1=O (centres undefined) = No
COCN1C(=O)[C@@H]2CCCN2C(=O)c2cc([N+](=O)[O-])ccc21 = No
CC(=O)O[C@H]1C(=O)[C@@]2(C)[C@H]([C@H](OC(=O)c3ccco3)[C@]3(O)C[C@H](OC(=O)[C@H](O)[C@@H](NC(=O)c4ccccc4)c4ccccc4)C(C)=C1C3(C)C)[C@]1(OC(C)=O)CO[C@@H]1C[C@@H]2O = Yes
O=C1/C(=C/c2ccccc2)NC(=S)N1CN1CCOCC1 = No

Input line: Query: recorded result category for NS(=O)(=O)c1cc(Cl)c(NC(=S)NC(=O)Nc2ccc(Cl)c(Cl)c2)c(Cl)c1 in this test
Output line: No

Input line: What call does the record list for Cc1cc2nnn(C3CCCCO3)c2cc1C (centres undefined) ?
Output line: No

Input line: Check the results log: what was the call for CCCC(CC)c1c(O)c(O)c(C(CC)CCC)c(C(CC)CCC)c1C(CC)CCC (centres undefined) ?
Output line: No

Input line: Could you please tell me the result logged for Cn1c(=O)c2nc(CCNC(=O)c3ccccc3)[nH]c2n(C)c1=O in this assay?
Output line: No

Input line: Field: outcome | Entry: CCCCc1ccc(Nc2nc(Cl)c3ncn(C4CC(Oc5ccc(C)cc5)C(COc5ccc(C)cc5)O4)c3n2)cc1 (centres undefined)
Output line: No

====

tested on: RPMI-8226; assay: NCI tumour cell line growth inhibition, 48 h
Activity calls are given as the source filed them. Cut-off read from the data, not from the text of the source: active = GI50 up to about 1.1 µM and inactive = higher.
// classify into active, inactive

Nc1nc(I)nc2c1ncn2C1OC(COS(N)(=O)=O)C(O)C1O (stereo not drawn) = active

Input line: Field: outcome | Entry: NN/C(=N\S(=O)(=O)c1cccc2nsnc12)Nc1ccc(Cl)cc1
Output line: inactive

Input line: Outcome? CCCCCN1CCN(c2ncccn2)CC1
Output line: inactive

Input line: Field: outcome | Entry: O=c1oc2ccccc2cc1-c1csc(Nc2ccc(F)cc2)n1
Output line: active

Input line: Name the outcome recorded for COC(=O)C1=C(C=O)C2C=CC1C2 (stereo not drawn) in the assay.
Output line: inactive

Input line: Call for entry O=C(CC(O)(C(F)(F)F)C(F)(F)F)c1cc(CC(=O)C(O)(C(F)(F)F)C(F)(F)F)cc(CC(=O)C(O)(C(F)(F)F)C(F)(F)F)c1 :
Output line: inactive

Input line: Could you check what this test reported for COc1ccc(C(C)c2cc3c(cc2O)OCO3)cc1 (stereo not drawn) ?
Output line: inactive

====

test system: PC-3; assay: NCI tumour cell line growth inhibition, 48 h
Activity calls are given as the source filed them. No stated cut-off is given here; in the data, active = GI50 up to about 1.1 µM and inactive = higher.
VALUE_TYPE: GI50

O=[N+]([O-])C(/C=C(\Cl)[N+](=O)[O-])=C1Nc2ccccc2N1 = 46.3 µM (inactive)
CCOP(=O)(CN1CCNCCNCC1)OCC = > 100 µM (inactive)
COc1ccc(-c2ncn(C[Si](C)(C)C)c2-c2ccc(OC)cc2)cc1 = 4.63 µM (inactive)
CC(N)C(C)Cc1ccccc1 (stereo unspecified) = > 100 µM (inactive)
O=C1/C(=C/c2ccccc2)N=C2Sc3c([nH]cnc3=O)N12 = > 100 µM (inactive)

Proceed to the following item.
Record CCOc1ccc(NCC2CC/C(=C\C=C\c3ccccc3)C2=O)cc1 (stereo unspecified) . Reported GI50: 23.6 µM (inactive)

====

Provide the recorded GI50 for the entries that follow.
test system: CAKI-1; assay: NCI tumour cell line growth inhibition, 48 h
The source made the active and inactive calls. No stated cut-off is given here; in the data, active = GI50 up to about 1.1 µM and inactive = higher.

Example compounds with recorded GI50:
O=C1c2ccccc2C(=O)N1n1c(Cc2ccc([N+](=O)[O-])cc2)n[nH]c1=O = > 100 µM (inactive)
COc1cc(C[C@H]2c3cc(OC)c(OC)cc3CCN2C)c(Oc2cc3c(cc2OC)-c2c(OC)c(OC)cc4c2[C@H](C3)N(C)CC4)cc1OC = 6.22 µM (inactive)

For the 6 compounds below, give their GI50 values.
1. CC(C(=O)n1nnc2ccccc21)N(c1ccccc1)c1ccccc1 (stereo unspecified)
2. CC1=C(C(=O)Nc2ccc([N+](=O)[O-])cc2)C(c2ccc3c(c2)OCO3)C(C(=O)Nc2ccc([N+](=O)[O-])cc2)=C(C)N1
3. COc1cc(S(=O)(=O)Nc2nc(-c3ccc(N4C(=O)/C(=C/C=C/c5ccccc5)N=C4c4ccccc4)cc3)cs2)ccc1Cl
4. O=CC1C[C@@H](N2C(=O)O[C@@H](c3ccccc3)[C@H]2c2ccccc2)[C@@H]1COCc1ccccc1 (stereo partly specified)
5. COc1ccc2nc3c(c(NCCCN(C)C)c2c1)CCCC3
6. CCCCCC1=CC(=O)C1(Cl)Cl

Output line:
1. > 100 µM (inactive)
2. 23.7 µM (inactive)
3. > 100 µM (inactive)
4. 36.2 µM (inactive)
5. 11.9 µM (inactive)
6. 8.3 µM (inactive)

====

tested on: A549; test: NCI tumour cell line growth inhibition, 48 h
Activity calls are given as the source filed them. Cut-off read from the data, not from the text of the source: active = GI50 up to about 1.1 µM and inactive = higher.
VALUE_TYPE: GI50

COc1cc([C@H]2c3cc4c(cc3O[C@@]3(O)COC(=O)[C@@H]23)OCO4)cc(OC)c1OC = > 100 µM (inactive)
O=[N+]([O-])c1cc([N+](=O)[O-])c(C(Cl)C(Cl)c2ccccc2)cc1C(Cl)C(Cl)c1ccccc1 (stereo unspecified) = 2.05 µM (inactive)
C=C1C(=O)C[C@@]23CCC[C@@]12CC(OCOC)C3 (stereo partly specified) = 13.5 µM (inactive)
CC(=O)OCC1OC(n2c3c(c(-c4ccc(C)cc4)c(C#N)c2=S)C(=O)CC(C)(C)C3)C(OC(C)=O)C(OC(C)=O)C1OC(C)=O (stereo unspecified) = 50.4 µM (inactive)
CC(=O)C(I(OS(=O)(=O)c1ccc(C)cc1)c1ccccc1)=P(c1ccccc1)(c1ccccc1)c1ccccc1 = 24.4 µM (inactive)

Report GI50 for every entry below.
1. Cc1cc2c(cc1C)[n+]([O-])c(N1CCN(c3ccc([N+](=O)[O-])cc3)CC1)c(C#N)[n+]2[O-]
2. CCN(CC)CCCNC(=O)c1cc(-c2nccn2C)nc2ccccc12
3. CN(Cc1cnc2nc(N)nc(N)c2n1)c1ccc(C(=O)N[C@@H](CCC(=O)O)C(=O)O)cc1 [METHOTREXATE]

Output line:
1: 29.8 µM (inactive); 2: > 100 µM (inactive); 3: 0.0345 µM (active)

====

test system: BT-549; test: NCI tumour cell line growth inhibition, 48 h
Active and inactive are the calls of the source. Rule as the data show it: active = GI50 up to about 1.1 µM and inactive = higher.
Your response should consist of one outcome taken from T = active, F = inactive

Example cases with answers are listed next.
Cc1cc(SCC(=O)c2ccc(Br)cc2)cc(C)[o+]1 = F
Cc1cc2c(cc1C)C(=O)C1(C2)Cc2cc3c(cc2C1=O)CCC3 (stereo unspecified) = F
O=C(N/N=C(COc1ccccc1Cl)\N=C\c1ccncc1)c1ccncc1 = F
C=C1C(=O)OC2/C=C(/C)C(OC(C)=O)C/C=C(\C)C(OC(=O)C3(C)OC3C)C(O)C12 (stereo unspecified) = F
COc1cc2c(c(OC)c1OC)-c1ccc(SC)c(=O)cc1C(NC=O)CC2 (stereo unspecified) = T

As a next step, examine the molecule that follows.
Input line: Which result was noted for this molecule in the test: Cc1cc2[nH]c3c(C#N)c(-c4ccccc4)c(/C=N/c4cccc(C(F)(F)F)c4)c(=O)n3c2cc1C
Output line: F

====

system: HCT-116; test: NCI tumour cell line growth inhibition, 48 h
Activity calls are given as the source filed them. Rule as the data show it: active = GI50 up to about 1.1 µM and inactive = higher.
Give your call using only these classes: yes for active, no for inactive

Example cases with answers are listed next.
CC(C)=CCC/C(C)=C/CC/C(C)=C/CSc1ccccc1C(=O)O [SALIRASIB] = no
CC(=O)O[C@H]1C(=O)[C@@]2(C)C(C(OC(=O)c3ccccc3)[C@]3(O)CC(OC(=O)C(O)C(NC(=O)c4ccc(C)cc4)c4ccccc4)C(C)=C1C3(C)C)[C@]1(OC(C)=O)CO[C@@H]1C[C@@H]2O (some centres undefined) = yes
COc1cc2c(/C=C3/C(=O)Nc4cc(C)c(O)cc43)c(Cl)[nH]c2cc1C = no

Input line: Check the results log: what was the call for Cc1cccc(Nc2nn3c(=O)c4c5c(sc4nc3s2)CCCC5)c1 ?
Output line: no

====

test system: DLD-1; assay: NCI tumour cell line growth inhibition, 48 h
Active and inactive are the calls of the source. Cut-off read from the data, not from the text of the source: active = GI50 up to about 1.1 µM and inactive = higher.
Answer with one of the outcomes given here: label 1 (active), label 0 (inactive)

COc1ccc(OCC(=O)O)c2c1CCC(C)C2=O (stereo not given) = label 0
CN(C)/C(F)=P\C(F)(F)F (stereo not given) = label 0
CCOc1ccc2[nH]c3c(C)c4cc[n+](C)cc4c(C)c3c2c1 = label 1
O=P(CCOc1ccccc1OCCP(=O)(c1ccccc1)c1ccc2c(c1)OCCOCCOCCOCCO2)(c1ccccc1)c1ccc2c(c1)OCCOCCOCCOCCO2 (stereo not given) = label 0

Now consider the entry below.
Input line: Identify the outcome logged in this assay for the compound shown: CC(C)(C)C#C[P+](c1ccccc1)(c1ccccc1)c1ccccc1
Output line: label 1
